Entry source: PubChem BioAssay (NCI)

System: 786-0 renal
Experiment: NCI-60 one-dose screen, 48 h (100 = growth as untreated, 0 = no growth, -100 = all killed)
Conditions: 10 µM unless noted
Compounds without any hit were thinned out: in the full panel of roughly 83,000, 20% have a hit. The source made the active and inactive calls. The calls were made as follows: active = growth percent below 10; inactive = the rest.
Consider the following compounds and their measured growth readings.

compound	growth
COc1ccc2c(c1)C(=Nc1cc(OC)c(OC)c(OC)c1)C(=O)N2	104% (inactive)
BrC1CC(Br)c2c1c1c(c3c2C(Br)CC3Br)C(Br)CC1Br (stereo not drawn)	116% (inactive)
CCSc1ncc(Br)c(Sc2nc(N)nc3nc[nH]c23)n1	33.6% (inactive)
NS(=O)(=O)c1ccc(-n2nc(-c3ccc(Br)cc3)ccc2=O)cc1	46.7% [100 µM] (inactive)
COc1ccc2cc(-c3nc4ccccc4[nH]3)c(=O)oc2c1	98% (inactive)
Oc1ccccc1/C=N/N1CCCCCC1	110% (inactive)
O=C1NCCc2c1noc2-c1ccccc1	96.5% (inactive)
COc1cc(/C=C/C(=O)CC(=O)/C=C/c2ccc(OC(=O)C3C4CC5CC(C4)CC3C5)c(OC)c2)ccc1OC(=O)C1C2CC3CC(C2)CC1C3 (stereo not drawn)	104% (inactive)

---

System: EKVX NSCLC
Test: NCI-60 one-dose screen, 48 h (100 = growth as untreated, 0 = no growth, -100 = all killed)
Settings: 10 µM unless noted
The panel holds about 83,000 compounds, 20% with a hit somewhere; the sample as a whole holds those more often.
API: label(entry) gives TRUE if the entry's growth is strictly smaller than 90%; on equality or larger values it gives FALSE.

compound	target-desc	class-assignment
Cc1cc2c(cc1C)[n+](Cc1ccc3ccccc3c1)cn2Cc1ccc2ccccc2c1	EKVX NSCLC	TRUE
Nc1ccccc1-c1ccn[nH]1	EKVX NSCLC	TRUE
O=C(Nc1ccc2c(c1)C(=O)c1ccccc1-2)c1ccccc1	EKVX NSCLC	FALSE
CCN(CC)c1ccc(/C=C/C(=O)c2cccc(NS(C)(=O)=O)c2)cc1	EKVX NSCLC	TRUE
C[C@H]1c2cccc(O)c2C(O)=C2C(=O)[C@]3(O)C(O)=C(C(N)=O)C(=O)[C@@H](N(C)C)[C@@H]3[C@@H](O)[C@@H]21	EKVX NSCLC	TRUE
CC(=O)OC1Oc2cc(C)c(C)cc2-c2oc(=O)c(-c3ccccc3)cc21 (centres undefined)	EKVX NSCLC	TRUE
Nc1nc(NC2CC2)c2ncn(C3C=CC(CO)C3)c2n1 (centres undefined)	EKVX NSCLC	FALSE
COc1cnc2c(c1)C(=O)c1c-2n(CCCN2CCNCC2)c(=O)c2cc(F)ccc12	EKVX NSCLC	TRUE
[N-]=[N+]=NCc1cccc(/C(O)=C/C(=O)C(=O)O)c1	EKVX NSCLC	FALSE
COc1c(O)cc2c(c1CC=C(C)C)OC(=O)c1c(cc(O)c(CC=C(C)C)c1O)O2	EKVX NSCLC	TRUE
O=CN1N=C(c2ccc(Nc3ccnc4cc(Cl)ccc34)cc2)CC1c1ccc(Cl)cc1 (centres undefined)	EKVX NSCLC	TRUE
O=C(COc1cccc(/C=C2\Oc3ccc4ccccc4c3C2=O)c1)c1ccc([N+](=O)[O-])cc1	EKVX NSCLC	TRUE

---

Tested on: SF-268 CNS
Test: NCI-60 one-dose screen, 48 h
Conditions: 10 µM unless noted
Method: Cells are grown in 96 well plates and exposed to the test compound for 48 hours. Compounds are tested at a single concentration, which is 10^-5 M for most compounds. The reported endpoint is percent growth (GI% or GIPRCNT), where numbers from 0 - 100% represent growth inhibition, and numbers from -100% - 0 represent cell death. For example, a value of 40 represents 60% growth inhibition. A value of 0 means no net growth occurred over the course of the experiment. […]
Compounds without any hit were thinned out: in the full panel of roughly 83,000, 20% have a hit. Active and inactive are the calls of the source. How the source made its calls: active means growth percent below 10; inactive means the rest.
Outcome codes: 1 for active, 0 for inactive

compound	class-assignment
O=Cc1ncc(-c2ccc(C(F)(F)F)cc2)c(NC2CCCCCC2)n1	1
C[C@H](C(=O)N[C@@H](Cc1ccc(-c2ccccc2)cc1)C(=O)NC1CC(C)(C)N(C)C(C)(C)C1)c1ccc(-c2ccccc2)c(F)c1	1
O=C1Nc2ccc(Cl)cc2/C1=C/c1cccs1	0
Oc1c(N=Nc2nn[nH]n2)ccc2ccccc12	0
CC1Cc2ccccc2N1C(=O)c1ccc(C(=O)c2ccccc2)cc1 (centres undefined)	0
O=C(CC1Sc2ccccc2NC1=O)NNc1cccc(Cl)c1Cl (centres undefined)	0
O=C(/C=C/c1cccc(O)c1)c1cccc(-n2cc(-c3ccccc3)[nH]c2=O)c1	1
Cc1ncc(C(=O)Nc2ccc(CN3CCN(C)CC3)c(C(F)(F)F)c2)cc1C#Cc1cncc2ncccc12	0
N#Cc1c(-c2ccccc2)cc(-c2ccccc2)n(CCCCC(=O)O)c1=O	0
COC(=O)N/N=C/c1coc2ccc(Cl)cc2c1=O	0
COc1cc(C2CC(C3C(=O)N(C)C(=O)N(C)C3=O)=NN2C=O)cc(OC)c1OC (centres undefined)	0
BrC1CC(Br)c2c1c1c(c3c2C(Br)CC3Br)C(Br)CC1Br (centres undefined)	0
CCN(CC)CCSc1ncnc2c1cnn2-c1ccc(S(N)(=O)=O)cc1	0
O=C(CNC(=O)c1cccc2ccccc12)Nc1ccccc1Oc1ccc(O)cc1	0

---

Tested on: DU-145 prostate
Test: NCI-60 one-dose screen, 48 h
Conditions: 10 µM unless noted
About 83,000 compounds went through this panel and 20% of them were active in at least one assay; those are over-represented in the sample as a whole. The source made the active and inactive calls. Rule for the calls: active = growth percent below 10; inactive = the rest.
Outcomes: active, inactive

compound	class-assignment
c1ccc(-c2nc(Nc3nccnn3)c3ccccc3n2)cc1	inactive
COc1ccc(N2CCN(CC(=O)N3CCN(c4nnc(-c5ccccc5)c(-c5ccccc5)n4)CC3)CC2)cc1	inactive
O=C(c1ccccc1)C(CN1CCCCC1)c1ccccc1 (stereo unspecified)	inactive
Cc1cc(=O)[nH]c(/C(=N/Nc2ccccc2)C(=O)c2ccc(Cl)cc2)n1	inactive
Cc1ccc(NC(=O)c2sc3nc4c(cc3c2N)C(=O)CCC4)cc1	inactive
O=C1c2cccc3c([N+](=O)[O-])ccc(c23)C(=O)N1CCCCl	active
Nc1ccc2c(c1)Cc1cc(Cl)c(Cl)cc1-2	inactive
COc1ccc(/C=C/C(=O)c2cccc(NS(C)(=O)=O)c2)cc1	inactive
O=C(O)C1C(c2ccccc2)c2ccccc2C(O)C1CO (stereo unspecified)	inactive
Cn1ccnc1C(=O)/C=C/c1ccc(C(=O)Nc2nc3ccccc3[nH]2)cc1	active
COc1cc(/C=N/NC(=O)c2ccc(C(F)(F)F)nc2Nc2cc(Cl)ccc2C)cc(OC)c1OC	inactive
CC1CN(CC(O)c2ccc(Br)cc2)CCO1 (stereo unspecified)	inactive
Cc1cc(C)cc(S(=O)(=O)n2ccc(-c3ccc4c(c3)CCC(C)(C)O4)n2)c1	inactive
N#Cc1c(-c2ccccc2)cc(-c2ccccc2)n(CCC(=O)O)c1=O	inactive
CCN1CCN(c2nc(NNC(=O)Cc3ccccc3)nc(N3CCN(C(c4ccccc4)c4ccccc4)CC3)n2)CC1	inactive
COc1cccc(-c2nc(-c3ccc(N)cc3)co2)c1	inactive

---

System: K-562 leukemia
Assay: NCI-60 one-dose screen, 48 h
Settings: 10 µM unless noted
Compounds without any hit were thinned out: in the full panel of roughly 83,000, 20% have a hit. The source made the active and inactive calls. How the source made its calls: active means growth percent below 10; inactive means the rest.
Classes used: T = active, F = inactive

compound	class-assignment
CC(C)CC1NC(=O)C(CCCN)NC(=O)C(C(C)C)NC(=O)C2CCCN2C(=O)C(Cc2ccccc2)NC(=O)C(CC(C)C)NC(=O)C(CCCN)NC(=O)C(C(C)C)NC(=O)C2CCCN2C(=O)C(Cc2ccccc2)NC1=O (stereo not drawn)	T
CCCCN=C(N)c1ccc(OCCSCCOc2ccc(C(N)=NCCCC)cc2)cc1	F
COC(=O)Nc1ccc2ccc3c(NC(=O)OC)ccc4ccc1c2c43 (tested in a mixture with another compound)	F
O=C(CNC(=O)c1cccc2ccccc12)Nc1ccccc1Oc1cccc(O)c1	T
Cc1cc(Cl)ccc1Nc1nc(C(F)(F)F)ccc1C(=O)N/N=C/c1ccc(Cl)cc1	T
FC(F)(F)c1ccc(-c2cnc(-c3nn[nH]n3)nc2NC2CCCCCC2)cc1	F
CC(C)N(Cc1ccccc1)c1c(Cl)ssc1=O	F
CC(=O)N1N=C(c2ccc(Nc3ccnc4cc(Cl)ccc34)cc2)CC1c1ccc(Cl)cc1 (stereo not drawn)	F
NS(=O)(=O)c1ccc(-n2nc(-c3ccc(Br)cc3)ccc2=O)cc1	F
CNc1nc(NC2CCCC2)nc(Sc2ccc(OC)cc2)n1	T
O=C(Oc1cccc2ccccc12)c1ccccc1C(=O)c1ccccc1	T
Cc1ccc(S(=O)(=O)N2CCN(C(=O)CSc3nc4ccc(C)cc4[nH]3)CC2)cc1	F
O=C(O)CNC(=O)C1(N2C(=O)c3ccccc3C2=O)CCCC1	F
c1cc[n+](Cc2ccnc3ccccc23)cc1	F
COc1cc(/C=N/OC(=O)Nc2ccccc2)cc(OC)c1OC	F
O=c1ncc(-c2ccc(C(F)(F)F)cc2)c(NC2CCCCCC2)[nH]1	F
COc1cc(/C=C/C(=O)c2c(C)n([O-])c3ccc(Cl)cc3[n+]2=O)cc(OC)c1OC	F
Nc1ccc2c(c1)Cc1cc(Cl)c(Cl)cc1-2	F
